- targetOfAssay: Acetylcholinesterase (Homo sapiens)
- assayRemarks: Inhibitory activity against Acetylcholinesterase in cortex
- Format: tissue-based

compoundStructure | targetOfAssay | unitAbbreviation | IC50
CN1CC[C@@]2(C)c3cc(OC(=O)NC(C)(C)C)ccc3N(C)[C@@H]12 | Acetylcholinesterase (Homo sapiens) | nM | 32000
CN(C)C(=O)Oc1ccc2c(c1)[C@]1(C)CCN(C)[C@@H]1N2C | Acetylcholinesterase (Homo sapiens) | nM | 310
CNC(=O)Oc1ccc2c(c1)[C@]1(C)CCN(CCc3ccccc3)[C@@H]1N2C | Acetylcholinesterase (Homo sapiens) | nM | 150

###

- targetOfAssay: UniProt:P06276
- assayRemarks: Inhibitory activity against Butyrylcholinesterase in plasma
- Type: cell-free
pIC50: −log10 of the molar value.
Use rule met when the recorded pIC50 is no lower than 7; use rule not met when it is lower.

compoundStructure | targetOfAssay | className
CCCCCCCCNC(=O)Oc1ccc2c(c1)[C@]1(C)CCN(C)[C@@H]1N2C | UniProt:P06276 | rule met
C=CCN1CC[C@@]2(C)c3cc(OC(=O)NC)ccc3N(C)[C@@H]12 | UniProt:P06276 | rule met
CN(C)C(=O)Oc1ccc2c(c1)[C@]1(C)CCN(C)[C@@H]1N2C | UniProt:P06276 | rule not met
CN1CC[C@@]2(C)c3cc(OC(=O)NC(C)(C)C)ccc3N(C)[C@@H]12 | UniProt:P06276 | rule not met

###

- targetOfAssay: Cholinesterase (Homo sapiens)
- Sequence (P06276 whole entry): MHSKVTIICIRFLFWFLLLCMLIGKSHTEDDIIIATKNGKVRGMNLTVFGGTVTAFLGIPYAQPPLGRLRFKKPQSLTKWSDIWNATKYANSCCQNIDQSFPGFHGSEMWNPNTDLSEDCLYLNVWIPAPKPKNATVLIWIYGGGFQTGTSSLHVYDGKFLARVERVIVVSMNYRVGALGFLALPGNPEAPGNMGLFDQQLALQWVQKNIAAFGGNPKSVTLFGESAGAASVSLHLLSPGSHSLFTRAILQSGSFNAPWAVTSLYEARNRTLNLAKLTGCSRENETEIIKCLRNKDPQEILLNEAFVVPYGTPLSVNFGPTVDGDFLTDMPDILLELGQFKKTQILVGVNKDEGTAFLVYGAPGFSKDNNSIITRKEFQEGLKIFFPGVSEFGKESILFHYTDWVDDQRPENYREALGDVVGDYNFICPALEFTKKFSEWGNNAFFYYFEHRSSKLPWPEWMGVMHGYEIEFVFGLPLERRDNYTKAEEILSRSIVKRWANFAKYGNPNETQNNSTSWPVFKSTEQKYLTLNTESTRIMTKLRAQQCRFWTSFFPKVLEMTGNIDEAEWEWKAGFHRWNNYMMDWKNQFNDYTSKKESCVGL
- assayRemarks: Inhibitory activity against Butyrylcholinesterase in cortex
- Type: tissue-based
pIC50: −log10 of the molar value.
parameter: pIC50

compoundStructure | obsValue
C=CCN1CC[C@@]2(C)c3cc(OC(=O)NC)ccc3N(C)[C@@H]12 | 7.80
COc1ccc(NC(=O)Oc2ccc3c(c2)[C@]2(C)CCN(C)[C@@H]2N3C)cc1 | 6.64
CCCCCCCCNC(=O)Oc1ccc2c(c1)[C@]1(C)CCN(C)[C@@H]1N2C | 8.05
CN(C)C(=O)Oc1ccc2c(c1)[C@]1(C)CCN(C)[C@@H]1N2C | 5.52
CN1CC[C@@]2(C)c3cc(OC(=O)NC(C)(C)C)ccc3N(C)[C@@H]12 | 4.96

###

Dear all, this message contains IC50 results, target or system Acetylcholinesterase (Electrophorus electricus, UniProt O42275).

compoundStructure | relationSymbol | IC50, nM
CN1CC[C@@]2(C)c3cc(OC(=O)NC(C)(C)C)ccc3N(C)[C@@H]12 | > | 10000
COc1ccc(NC(=O)Oc2ccc3c(c2)[C@]2(C)CCN(C)[C@@H]2N3C)cc1 | = | 1700
CN(C)C(=O)Oc1ccc2c(c1)[C@]1(C)CCN(C)[C@@H]1N2C | = | 970

###

- targetOfAssay: Acetylcholinesterase (Homo sapiens, UniProt P22303)
- Sequence (P22303 whole entry): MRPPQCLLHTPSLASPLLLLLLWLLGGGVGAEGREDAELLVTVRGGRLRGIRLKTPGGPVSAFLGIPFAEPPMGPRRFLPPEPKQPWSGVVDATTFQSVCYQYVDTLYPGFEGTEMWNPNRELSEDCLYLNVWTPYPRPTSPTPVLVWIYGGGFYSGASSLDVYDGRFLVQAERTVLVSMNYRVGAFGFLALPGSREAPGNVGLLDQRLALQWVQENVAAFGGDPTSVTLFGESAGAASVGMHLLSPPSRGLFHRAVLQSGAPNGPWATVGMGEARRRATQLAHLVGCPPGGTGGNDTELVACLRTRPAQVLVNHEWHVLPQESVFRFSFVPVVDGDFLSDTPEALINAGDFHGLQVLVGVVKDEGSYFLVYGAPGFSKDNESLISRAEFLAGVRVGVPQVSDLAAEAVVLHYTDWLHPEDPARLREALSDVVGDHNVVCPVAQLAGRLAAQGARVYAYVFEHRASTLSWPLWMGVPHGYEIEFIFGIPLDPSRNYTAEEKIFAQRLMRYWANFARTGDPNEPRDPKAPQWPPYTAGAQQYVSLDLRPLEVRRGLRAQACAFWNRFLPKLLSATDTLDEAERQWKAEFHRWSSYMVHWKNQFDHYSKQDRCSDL
- assayRemarks: Inhibitory activity against Acetylcholinesterase in erythrocyte
pIC50: −log10 of the molar value.
parameter: pIC50

compoundStructure | obsValue
CN(C)C(=O)Oc1ccc2c(c1)[C@]1(C)CCN(C)[C@@H]1N2C | 6.68
CN1CC[C@@]2(C)c3cc(OC(=O)NC(C)(C)C)ccc3N(C)[C@@H]12 | 4.64
CNC(=O)Oc1ccc2c(c1)[C@]1(C)CCN(CCc3ccccc3)[C@@H]1N2C | 6.66
